System: neonate larvae of H. virescens
Type: in vivo, Heliothis virescens
condition-parameters: at the μg insecticide/vial of Table 4
Recorded % Mortality at 24 hours values for a group of molecules are listed next.

{"molecule": "C=CCC1=C(C)C(OC(=O)C2C(C=C(C)C)C2(C)C)CC1=O (stereo not drawn)", "system-under-test": "neonate larvae of H. virescens", "% Mortality at 24 hours, %": 14.0}
{"molecule": "O=S1OCC2C(CO1)C1(Cl)C(Cl)=C(Cl)C2(Cl)C1(Cl)Cl (stereo not drawn) [Endosulfan]", "system-under-test": "neonate larvae of H. virescens", "% Mortality at 24 hours, %": 17.5}
{"molecule": "CNC(=O)ON=C(C)SC", "system-under-test": "neonate larvae of H. virescens", "% Mortality at 24 hours, %": 20.8}
{"molecule": "Clc1ccc(C(c2ccc(Cl)cc2)C(Cl)(Cl)Cl)cc1", "system-under-test": "neonate larvae of H. virescens", "% Mortality at 24 hours, %": 18.8}
{"molecule": "CCCSP(=O)(OCC)Oc1ccc(Br)cc1Cl (stereo not drawn)", "system-under-test": "neonate larvae of H. virescens", "% Mortality at 24 hours, %": 16.3}
{"molecule": "CC1(C)C(C=C(Cl)Cl)C1C(=O)OC(C#N)c1cccc(Oc2ccccc2)c1 (stereo not drawn)", "system-under-test": "neonate larvae of H. virescens", "% Mortality at 24 hours, %": 11.8}
